system: TO-3-N3-2 (biotin conjugate); assay: pull-down binding Z-score (relative to library population); higher = stronger binding; conditions: RNA library: Library-2
Below: a set of entries, each annotated with reported pull-down binding Z-score.
Readout: pull-down binding Z-score

1. CGAGGUGG [hsa-mir-4302]; -0.0533
2. UGCAGCAGAAACGCUCA [SHAPE_invitro_SARS-CoV-2_Motif_303]; 0.0228
3. GCUGCACUGUCUCCGUCUGCGG [hsa-mir-4519]; 0.0588
4. AUUCUGGACACCAG [hsa-mir-147b]; 0.387
5. GCUUUCUGUGGUCAGAAAGAAAAGCAAGU [hsa-mir-520f]; 0.704
6. AAUCAUACAUCACCAGAUGUUGAUU [SHAPE_invitro_SARS-CoV-2_Motif_454]; -0.477
7. AGAAAAUUUUUCUCCAAAGUUUUCU [hsa-mir-4659b]; -0.443
8. GUGCCACUCCAUGGCAC; -0.276
9. UCCUCCACAAAUGCGUGUGGAGGA [hsa-mir-4633]; -0.698
10. CGCUGAUGUGCAUUCAACUCAUUCUCAGCA [hsa-mir-1468]; -0.226
11. UGGGGAGUUGAACCUA [IAV_invivo_PB2_1_Motif_19+IAV_invivo_PB2_1_Motif_19]; 0.0385
